experiment: qHTS assay for MDR1-selective chemotherapeutics: Primary screen using the drug-selected MDR subline cells KB-V1; conditions: KB-V1 MDR cells viability, CellTiter-Glo, 72 h; series mostly up to 46.1 µM; further: nearly all actives have a fitted effect of over 60% in size
About 13,000 (3.2%) of roughly 400,000 compounds were called active. Another 18% or so got no clear call; they are omitted. The call rests on the fitted dose curve; in most records, active means well fitted cell-killing curve with a large enough effect; inconclusive means small, poorly fitted or top-dose-only effect, or effect the other way; inactive means flat fitted curve, though single readings scatter. What follows is part of a selection rich in actives, with near analogues and random picks from the rest.
// allowed return values: Y for active, N for inactive

| smiles text | label class |
| --- | --- |
| CCN(CC)S(=O)(=O)c1ccc(N(C)Cc2cccc(OC)c2OC)nc1 | Y |
| O=C(C[C@H]1CC[C@H]2[C@@H](COC[C@H](O)CN2C(=O)c2ccccn2)O1)N1CCN(c2ccccc2)CC1 | N |
| CCn1c(=O)c(=O)n(CC)c2cc(N3CCCCC3)c(NC(=O)c3cccc(F)c3)cc21 | N |
| O=C(Nc1ccccc1N1CCN(c2ccccc2)CC1)c1cccc(F)c1 | Y |

Continue with the compound presented below.
How did this test come out for CCOc1ccc(Br)cc1S(=O)(=O)Nc1cccc(S(=O)(=O)N(CC)CC)c1 ? N

---

test: qHTS assay for MDR1-selective chemotherapeutics: Primary screen using the drug-selected MDR subline cells KB-V1; details: KB-V1 MDR cells viability, CellTiter-Glo, 72 h; series mostly up to 46.1 µM; further: nearly all actives have a fitted effect of over 60% in size
Among all 400,000 compounds or so, about 13,000 (3.2%) were called active. Roughly 18% stayed inconclusive and do not appear here. Calls come from the whole dose curve; as a rule, active = well fitted cell-killing curve with a large enough effect; inconclusive = small, poorly fitted or top-dose-only effect, or effect the other way; inactive = flat fitted curve, though single readings scatter. The sample holds actives, similar compounds and a random draw of the others, so the mix is not that of the screen.
Please answer using one outcome listed in active, inactive

| molecule | label class |
| --- | --- |
| O=C(OCc1ccc(-c2ccccc2)cc1)c1cccc(O)c1 | inactive |
| Cc1ccccc1Cn1nc(C)c(NC(=O)c2cc(-c3ccc(F)cc3)on2)c1C | inactive |

State the result this test recorded for CCc1nnc(NC(=O)c2ccco2)s1 . inactive

Identify the outcome logged in this assay for the molecule shown: NS(=O)(=O)c1ccc(NC(=O)C(=O)Nc2ccc3nc4n(c(=O)c3c2)CCCCC4)cc1 inactive

Give the logged outcome of this assay for the following molecule: O=C(OCc1ccc(Br)cc1)c1cccc(-c2nnc(-c3ccccc3)o2)c1 active

Query: recorded result category for Cc1cccc(C)c1NC(=O)CNC(=O)c1ccc(N2CCOCC2)c([N+](=O)[O-])c1 in this test inactive

Name the outcome recorded for CN(C)C(=O)c1cccc(-c2cnc3sc(NCc4ccc5c(c4)OCO5)nn23)c1 in the assay. inactive

---

assay: qHTS assay for MDR1-selective chemotherapeutics: Primary screen using the drug-selected MDR subline cells KB-V1; settings: KB-V1 MDR cells viability, CellTiter-Glo, 72 h; series mostly up to 46.1 µM; further: nearly all actives have a fitted effect of over 60% in size
The campaign covered roughly 400,000 compounds. About 13,000 (3.2%) were called active. Another 18% or so got no clear call; they are omitted. The call rests on the fitted dose curve; in most records, active means well fitted cell-killing curve with a large enough effect; inconclusive means small, poorly fitted or top-dose-only effect, or effect the other way; inactive means flat fitted curve, though single readings scatter. For the sample, actives were picked, then their nearest neighbours and some compounds at random.
Allowed answers: TRUE for active, FALSE for inactive

Some solved entries appear below for comparison.
| molecule | label class |
| --- | --- |
| CC(C)c1ccc(-c2noc(C3CCCN(S(C)(=O)=O)C3)n2)cc1 (configuration not stated) | TRUE |
| COc1cc(-c2noc(C3CCCN(S(=O)(=O)c4cccc(Cl)c4)C3)n2)cc(OC)c1OC (configuration not stated) | FALSE |
| Cc1ccc(Cc2c(-c3ccco3)nc3ccc(Cl)cn23)cc1 | FALSE |
| OC[C@@H]1CN(C2CCCC2)C[C@H](n2cnc3c(NC4CCC4)ncnc32)O1 | FALSE |

Could you kindly confirm the outcome this assay logged for CC(=O)c1cccc(-c2cnc3c(NC=O)cc(-c4cccc(C(=O)N(C)C)c4)cn23)c1 ? FALSE

Can you look up the reported call for Cc1ccc2nc(NCCCNC(=O)c3cnccn3)c(C#N)cc2c1 for me? FALSE

Value source: PubChem BioAssay AID1347076
